Give measured inhibition at 5 µM for each item. Keep answers brief.
study.target: SARS-CoV-2 3CLpro (Severe acute respiratory syndrome coronavirus 2, UniProt P0DTD1)
experimental.details: biochemical
Assay type: biochemical
condition.info: 4 h, sheet LOPAC_screen_w_protease; LOPAC1280 primary screen with protease, 5 µM compound; replicate 1; read-out: Replicate_1
Structures can show the parent of a compound that is named as a salt.
Answers are plain numbers, in %.

Example entries and their recorded answers appear below.
- Cc1[nH]c(=O)c(C#N)cc1-c1ccncc1 [Milrinone]: 3.12
- CN(C)C(=O)Oc1cccc([N+](C)(C)C)c1 [Neostigmine bromide]: 4.9

Record inhibition at 5 µM per entry; entries follow.
1. CC[C@H](C)C(=O)O[C@H]1CCC=C2C=C[C@H](C)[C@H](CC[C@@H]3C[C@@H](O)CC(=O)O3)[C@H]21 [Mevastatin]
2. Cc1cc(C(C)(C)C)c(O)c(C)c1CC1=NCCN1 [Oxymetazoline hydrochloride]
3. CNCCC(Oc1ccccc1OC)c1ccccc1 (stereo not drawn) [Nisoxetine hydrochloride]
4. CC1(C)CCC(NC(=O)[C@@H](N)CCC(=O)O)CC1 [CR 2249]
5. CC1COc2c(N3CCN(C)CC3)c(F)cc3c(=O)c(C(=O)O)cn1c23 (stereo not drawn) [Ofloxacin]
6. CC(Cc1ccc(O)cc1)NCC(O)c1cc(O)cc(O)c1 (stereo not drawn) [Fenoterol hydrobromide]
7. NC(=O)c1ncn([C@@H]2O[C@H](CO)[C@@H](O)[C@H]2O)c1O [Mizoribine]

Result:
3.98
4.63
3.53
4.44
5.61
6.58
4.56

Value source: paper PMC7587356
